Target: LXRβ (Homo sapiens)
Construct: Co-transfection expression plasmids, comprising full-length LXRα (pCMX-h LXRα[…] or LXRβ (pCMX-hLXRβ))
Sequence (P55055 1-460): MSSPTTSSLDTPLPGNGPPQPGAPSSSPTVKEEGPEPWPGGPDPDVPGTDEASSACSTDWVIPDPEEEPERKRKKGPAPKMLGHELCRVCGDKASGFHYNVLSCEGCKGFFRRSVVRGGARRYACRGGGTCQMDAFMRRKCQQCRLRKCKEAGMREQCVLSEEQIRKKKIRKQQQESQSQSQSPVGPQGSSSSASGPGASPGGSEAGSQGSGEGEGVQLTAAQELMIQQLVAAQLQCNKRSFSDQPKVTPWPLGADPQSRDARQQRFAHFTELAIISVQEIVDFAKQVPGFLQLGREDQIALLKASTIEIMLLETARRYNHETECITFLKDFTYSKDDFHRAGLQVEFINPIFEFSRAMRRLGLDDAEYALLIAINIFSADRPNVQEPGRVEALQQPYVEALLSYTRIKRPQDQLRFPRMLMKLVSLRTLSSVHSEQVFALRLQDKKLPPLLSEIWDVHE
Sequence (P19793 1-462 partner): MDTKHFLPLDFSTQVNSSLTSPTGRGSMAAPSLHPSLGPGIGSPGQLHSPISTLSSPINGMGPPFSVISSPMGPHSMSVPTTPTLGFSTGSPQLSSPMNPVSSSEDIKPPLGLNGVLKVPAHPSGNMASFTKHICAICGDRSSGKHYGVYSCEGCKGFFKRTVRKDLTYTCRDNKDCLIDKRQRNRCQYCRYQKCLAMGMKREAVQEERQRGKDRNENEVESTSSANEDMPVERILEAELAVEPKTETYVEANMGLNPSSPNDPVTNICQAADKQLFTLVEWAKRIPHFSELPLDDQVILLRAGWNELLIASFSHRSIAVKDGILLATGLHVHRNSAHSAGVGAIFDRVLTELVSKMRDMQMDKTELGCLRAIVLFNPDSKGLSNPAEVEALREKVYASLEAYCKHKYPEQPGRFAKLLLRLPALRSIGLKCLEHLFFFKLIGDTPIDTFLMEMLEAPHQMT
Experiment: Co-transfection assay (LXRE luciferase reporter), LXRβ
Conditions: CV-1 cells transfected with pCMX-hLXRβ and LXREx1-Tk-Luciferase; 20 hours incubation
MEASURED_ATTRIBUTE: EC50 (nM)
Give just the number in nM; leave the unit off.

Which EC50 value belongs to `CCC(F)(F)c1cn(-c2ccc(-c3cccc(S(=O)(=O)N(C)C)c3)cc2-n2nncc2-c2ccc(OC(F)(F)F)cc2)c(C)n1` ?
494

Record: `Cc1nc(C(F)(F)F)cn1-c1ccc(-c2cccc(S(C)(=O)=O)c2)cc1-n1nncc1-c1ccc(Cl)c(C(F)(F)F)c1`
289

Record: `Cc1nc(-c2cc(-c3cccc(S(C)(=O)=O)c3)ccc2-n2cc(C(F)(F)F)nc2C)c(-c2ccc(Cl)c(OC(F)F)c2)o1`
398

This collection of values is drawn from patent US9834542B2.
